# maps each entry to its phage binding ELISA signal
experimentalTarget: T1, PSMA Fab (SEQ ID NOs: 19, 20) (biotinylated (site not stated))
T1 construct: In the phage ELISA the biotinylated PSMA Fab was captured on neutravidin coated plates; also called Anti-PSMA Fab; 006 PSMA Fab
method: clonal phage ELISA on captured biotinylated PSMA Fab, anti-M13-HRP detection, no PSMA antigen
testReadout: phage binding ELISA signal

> print(dat)
                         binder                 testreadout  measuredvalue
 1  GTTWCVPTWMCEGL [Phage-3634]  phage binding ELISA signal           1.54
 2  ADRVCKPAWMCDLF [Phage-3643]  phage binding ELISA signal           1.52
 3  VEPLCRPTWMCMSL [Phage-3636]  phage binding ELISA signal           1.53
 4  FPAMCKPSWMCTGF [Phage-3640]  phage binding ELISA signal           1.53
 5  SNMVCIPSWMCNGF [Phage-3641]  phage binding ELISA signal           1.53
 6  LVNYCIPPWMCAGF [Phage-3631]  phage binding ELISA signal           1.54
 7  PNILCKPQWMCAGF [Phage-3644]  phage binding ELISA signal           1.52
 8  YPPLCVPMWMCNGF [Phage-3639]  phage binding ELISA signal           1.53
 9  VHQLCIPVWMCSGF [Phage-3638]  phage binding ELISA signal           1.53
10  ELILCRPSWMCTGL [Phage-3632]  phage binding ELISA signal           1.54
11  EVAMCKPLWMCSGF [Phage-3635]  phage binding ELISA signal           1.53
12  AEVKCIPTWMCTGF [Phage-3637]  phage binding ELISA signal           1.53
13  VTMKCQPMWMCQGL [Phage-3642]  phage binding ELISA signal           1.52
14  SHALCRPAWMCMGL [Phage-3633]  phage binding ELISA signal           1.54
